Assay: in vitro
Conditions: human, liver microsomes
Think of 90 µL/min/mg as a floor: if microsomal CLint at 0.5 h, 1 µM stands on it or above, it is Met; beneath it, Not met.

Answered cases to consult:
- COMPOUND_SMILES: "COc1ccc(CC(=O)NC(=N)NCC(=O)Nc2cc(S(N)(=O)=O)ccc2C)cc1OC"
  DISCRETE_LABEL: "Not met"
- COMPOUND_SMILES: "COc1ccc(CC(=O)NC(=N)N[C@@H](C(=O)Nc2cc(S(N)(=O)=O)ccc2C)C2CC2)cc1OC"
  DISCRETE_LABEL: "Not met"
- COMPOUND_SMILES: "COc1ccc(CC(=O)NC(=N)N[C@H](Cc2cccs2)C(=O)Nc2cc(S(N)(=O)=O)ccc2C)cc1OC"
  DISCRETE_LABEL: "Met"

Input line: Can CNS(=O)(=O)c1ccc(C)c(NC(=O)[C@@H](CC2CCCCC2)NC(=N)NC(=O)Cc2cc(C(F)(F)F)cc(C(F)(F)F)c2)c1 be said to have microsomal CLint at 0.5 h, 1 µM at or above 90 µL/min/mg?
Output line: Met

Input line: Would you say COc1ccc(CC(=O)NC(=N)N[C@H](CC2CCCCC2)C(=O)Nc2cc(S(=O)(=O)NC3CC3)ccc2C)cc1OC shows microsomal CLint at 0.5 h, 1 µM at minimum 90 µL/min/mg?
Output line: Met

Input line: Please indicate if the recorded microsomal CLint at 0.5 h, 1 µM for COc1ccc(CCC(=O)NC(=N)N[C@H](CC2CCCCC2)C(=O)Nc2cc(S(=O)(=O)N(C)C)ccc2C)cc1OC meets or exceeds 90 µL/min/mg.
Output line: Met

---

Test: in vitro
Details: human, liver microsomes
PROPERTY_NAME: microsomal CLint at 0.5 h, 1 µM
Answer with the figure and its unit, nothing else.

Field: example entries. Status: answers known.
- COMPOUND_SMILES: "CNS(=O)(=O)c1ccc(C)c(NC(=O)[C@@H](C)NC(=N)NC(=O)Cc2ccc(OC)c(OC)c2)c1"
  microsomal CLint at 0.5 h, 1 µM: "134 µL/min/mg"
- COMPOUND_SMILES: "CNS(=O)(=O)c1ccc(C)c(NC(=O)[C@@H](Cc2ccccc2)NC(=N)NC(=O)Cc2ccc(OC)c(OC)c2)c1"
  microsomal CLint at 0.5 h, 1 µM: "131 µL/min/mg"
- COMPOUND_SMILES: "CNS(=O)(=O)c1ccc(C)c(NC(=O)[C@@H](CC(C)C)NC(=N)NC(=O)Cc2ccc(OC)c(OC)c2)c1"
  microsomal CLint at 0.5 h, 1 µM: "239 µL/min/mg"

Input line: Field request: microsomal CLint at 0.5 h, 1 µM | item: COc1ccc(CC(=O)NC(=N)N[C@H](CO)C(=O)Nc2cc(S(N)(=O)=O)ccc2C)cc1OC
Output line: 22.5 µL/min/mg

---

Assay: in vitro
Conditions: human, liver microsomes
Criterion: microsomal CLint at 0.5 h, 1 µM strictly under 100 µL/min/mg. Met: class 1. Not met: class 0.

Completed entries (count: 4):
- COMPOUND: "COc1ccc(CC(=O)NC(=N)N[C@H](C(=O)Nc2cc(S(N)(=O)=O)ccc2C)C2CCCC2)cc1OC"
  DISCRETE_LABEL: "class 0"
- COMPOUND: "COc1ccc(CC(=O)NC(=N)N[C@H](CC2CCCCC2)C(=O)Nc2cc(S(=O)(=O)NC3CCCCC3)ccc2C)cc1OC"
  DISCRETE_LABEL: "class 0"
- COMPOUND: "COc1ccc(CC(=O)NC(=N)N[C@H](CC2CC2)C(=O)Nc2cc(S(N)(=O)=O)ccc2C)cc1OC"
  DISCRETE_LABEL: "class 0"
- COMPOUND: "Cc1ccc(S(=O)(=O)N(C)C)cc1NC(=O)[C@@H](CC1CCCCC1)NC(=N)NC(=O)Cc1cccc(C(F)(F)F)c1"
  DISCRETE_LABEL: "class 0"

Now look at this one.
Input line: Would you kindly verify if microsomal CLint at 0.5 h, 1 µM of NC(=O)N1c2ccccc2C=Cc2ccccc21 [CARBAMAZEPINE] is strictly less than 100 µL/min/mg?
Output line: class 1

---

Give measured log10(microsomal CLint at 0.5 h, 1 µM) for each item. Keep answers brief.
Assay: in vitro
Details: mouse, liver microsomes
Scale type: logarithmic (base 10). Underlying microsomal CLint at 0.5 h, 1 µM unit: µL/min/mg.

Illustrative cases are given below, each with its answer.
- COMPOUND_SMILES: "COc1ccc(CC(=O)NC(=N)N[C@H](Cc2cccs2)C(=O)Nc2cc(S(N)(=O)=O)ccc2C)cc1OC"
  ASSAY_RESULT: 2.41
- COMPOUND_SMILES: "COc1ccc(CC(=O)NC(=N)N[C@H](C(=O)Nc2cc(S(N)(=O)=O)ccc2C)C2CCCC2)cc1OC"
  ASSAY_RESULT: 2.25
- COMPOUND_SMILES: "CCCC[C@@H](NC(=N)NC(=O)Cc1ccc(OC)c(OC)c1)C(=O)Nc1cc(S(N)(=O)=O)ccc1C"
  ASSAY_RESULT: 2.36
- COMPOUND_SMILES: "COc1ccc(CC(=O)NC(=N)N[C@H](CO)C(=O)Nc2cc(S(N)(=O)=O)ccc2C)cc1OC"
  ASSAY_RESULT: 1.19
- COMPOUND_SMILES: "COc1ccc(CC(=O)NC(=N)N[C@H](C)C(=O)Nc2cc(S(N)(=O)=O)ccc2C)cc1OC"
  ASSAY_RESULT: 1.70

// each listed compound needs a value for log10(microsomal CLint at 0.5 h, 1 µM)
1. COc1ccc(CCC(=O)NC(=N)N[C@H](CC2CCCCC2)C(=O)Nc2cc(S(=O)(=O)N(C)C)ccc2C)cc1OC
2. CCOC[C@@H](NC(=N)NC(=O)Cc1ccc(OC)c(OC)c1)C(=O)Nc1cc(S(N)(=O)=O)ccc1C
3. COc1ccc(CC(=O)NC(=N)N[C@@H](C(=O)Nc2cc(S(N)(=O)=O)ccc2C)C2=CCC=CC2)cc1OC

Output line:
1: 2.37; 2: 1.94; 3: 2.25

---

Experiment: in vitro
Settings: mouse, liver microsomes
PROPERTY_NAME: microsomal CLint at 0.5 h, 1 µM (µL/min/mg)
One number for each entry, in µL/min/mg.

Past entries and their recorded results:
- COMPOUND: "Cc1ccc(S(=O)(=O)N(C)C)cc1NC(=O)[C@@H](CC1CCCCC1)NC(=N)NC(=O)c1ccc2c(c1)OCCO2"
  ASSAY_RESULT: 272
- COMPOUND: "Cc1ccc(S(=O)(=O)N(C)C)cc1NC(=O)[C@@H](CC1CCCCC1)NC(=N)NC(=O)C1CCCc2ccccc21 (stereo partly drawn)"
  ASSAY_RESULT: 259
- COMPOUND: "COc1ccc(CC(=O)NC(=N)N[C@H](CC2CCCCC2)C(=O)Nc2cc(S(=O)(=O)NC(C)C)ccc2C)cc1OC"
  ASSAY_RESULT: 240
- COMPOUND: "CCC[C@@H](NC(=N)NC(=O)Cc1ccc(OC)c(OC)c1)C(=O)Nc1cc(S(N)(=O)=O)ccc1C"
  ASSAY_RESULT: 266
- COMPOUND: "Cc1ccc(S(=O)(=O)N(C)C)cc1NC(=O)[C@@H](CC1CCCCC1)NC(=N)NC(=O)Cc1cccc(C#N)c1"
  ASSAY_RESULT: 250
- COMPOUND: "Cc1ccc(S(=O)(=O)N(C)C)cc1NC(=O)[C@@H](CC1CCCCC1)NC(=N)NC(=O)Cc1ccccc1C(F)(F)F"
  ASSAY_RESULT: 244
- COMPOUND: "CNS(=O)(=O)c1ccc(C)c(NC(=O)[C@@H](CC2CCCCC2)NC(=N)NC(=O)Cc2ccc(OC)c(C(F)(F)F)c2)c1"
  ASSAY_RESULT: 215
- COMPOUND: "COc1ccc(CC(=O)NC(=N)N[C@H](CC2CCCCC2)C(=O)Nc2cc(S(=O)(=O)N(C)C)ccc2C)cc1OC"
  ASSAY_RESULT: 226

Go through the items and report each one's microsomal CLint at 0.5 h, 1 µM.
1. COc1ccc(CC(=O)NC(=N)N[C@@H](C(=O)Nc2cc(S(N)(=O)=O)ccc2C)C2CCCCC2)cc1OC
2. COc1ccc(CC(=O)NC(=N)N[C@H](CC2CCCCC2)C(=O)Nc2cc(S(N)(=O)=O)ccc2C)cc1OC
3. Cc1ccc(S(=O)(=O)N(C)C)cc1NC(=O)[C@@H](CC1CCCCC1)NC(=N)NC(=O)Cc1ccc2ccccc2c1
4. CNS(=O)(=O)c1ccc(C)c(NC(=O)[C@@H](C)NC(=N)NC(=O)Cc2ccc(OC)c(OC)c2)c1
5. CCN(CC)S(=O)(=O)c1ccc(C)c(NC(=O)[C@@H](CC2CCCCC2)NC(=N)NC(=O)Cc2ccc(OC)c(OC)c2)c1

Output line:
[210, 161, 200, 220, 227]
